Emax values for the compounds below.
target-of-assay: Glutamate NMDA receptor; GRIN1/GRIN2A (Homo sapiens, UniProt Q05586+Q12879)
test: Positive allosteric modulation of recombinant human GluN1/GluN2A receptor stably expressed in HEK293 cells assessed as increase in glycine/L-glutamate-induced channel current at -70 mV holding potential by whole cell patch clamp method relative to control
Assay type: cell-based
condition-notes: filed as positive allosteric modulator
Answer format reminder: number followed by unit.

Check out these entries, answers already filled in.
C[C@H](CC[C@](C)(O)C(F)(F)F)[C@H]1CC[C@H]2[C@@H]3CC[C@H]4C[C@@](C)(O)CC[C@]4(C)[C@H]3CC[C@]12C : 150%
CC(C)[C@@](C)(O)CC[C@@H](C)[C@H]1CC[C@H]2[C@@H]3CC=C4C[C@@](C)(O)CC[C@]4(C)[C@H]3CC[C@]12C : 260%
CC[C@](C)(O)CC[C@@H](C)[C@H]1CC[C@H]2[C@@H]3CC=C4C[C@@](C)(O)CC[C@]4(C)[C@H]3CC[C@]12C : 170%
CCCC[C@](C)(O)CC[C@@H](C)[C@H]1CC[C@H]2[C@@H]3CC=C4C[C@@](C)(O)CC[C@]4(C)[C@H]3CC[C@]12C : 170%
C[C@H](CC[C@](C)(O)C1CC1)[C@H]1CC[C@H]2[C@@H]3CC=C4C[C@@](C)(O)CC[C@]4(C)[C@H]3CC[C@]12C : 130%

Item COCC[C@@](C)(O)CC[C@@H](C)[C@H]1CC[C@H]2[C@@H]3CC=C4C[C@@](C)(O)CC[C@]4(C)[C@H]3CC[C@]12C : provide Emax
87%

----------
target-of-assay: Glutamate NMDA receptor; GRIN1/GRIN2B (Homo sapiens, UniProt Q05586+Q13224)
Sequence (Q13224 whole entry, other chains not shown): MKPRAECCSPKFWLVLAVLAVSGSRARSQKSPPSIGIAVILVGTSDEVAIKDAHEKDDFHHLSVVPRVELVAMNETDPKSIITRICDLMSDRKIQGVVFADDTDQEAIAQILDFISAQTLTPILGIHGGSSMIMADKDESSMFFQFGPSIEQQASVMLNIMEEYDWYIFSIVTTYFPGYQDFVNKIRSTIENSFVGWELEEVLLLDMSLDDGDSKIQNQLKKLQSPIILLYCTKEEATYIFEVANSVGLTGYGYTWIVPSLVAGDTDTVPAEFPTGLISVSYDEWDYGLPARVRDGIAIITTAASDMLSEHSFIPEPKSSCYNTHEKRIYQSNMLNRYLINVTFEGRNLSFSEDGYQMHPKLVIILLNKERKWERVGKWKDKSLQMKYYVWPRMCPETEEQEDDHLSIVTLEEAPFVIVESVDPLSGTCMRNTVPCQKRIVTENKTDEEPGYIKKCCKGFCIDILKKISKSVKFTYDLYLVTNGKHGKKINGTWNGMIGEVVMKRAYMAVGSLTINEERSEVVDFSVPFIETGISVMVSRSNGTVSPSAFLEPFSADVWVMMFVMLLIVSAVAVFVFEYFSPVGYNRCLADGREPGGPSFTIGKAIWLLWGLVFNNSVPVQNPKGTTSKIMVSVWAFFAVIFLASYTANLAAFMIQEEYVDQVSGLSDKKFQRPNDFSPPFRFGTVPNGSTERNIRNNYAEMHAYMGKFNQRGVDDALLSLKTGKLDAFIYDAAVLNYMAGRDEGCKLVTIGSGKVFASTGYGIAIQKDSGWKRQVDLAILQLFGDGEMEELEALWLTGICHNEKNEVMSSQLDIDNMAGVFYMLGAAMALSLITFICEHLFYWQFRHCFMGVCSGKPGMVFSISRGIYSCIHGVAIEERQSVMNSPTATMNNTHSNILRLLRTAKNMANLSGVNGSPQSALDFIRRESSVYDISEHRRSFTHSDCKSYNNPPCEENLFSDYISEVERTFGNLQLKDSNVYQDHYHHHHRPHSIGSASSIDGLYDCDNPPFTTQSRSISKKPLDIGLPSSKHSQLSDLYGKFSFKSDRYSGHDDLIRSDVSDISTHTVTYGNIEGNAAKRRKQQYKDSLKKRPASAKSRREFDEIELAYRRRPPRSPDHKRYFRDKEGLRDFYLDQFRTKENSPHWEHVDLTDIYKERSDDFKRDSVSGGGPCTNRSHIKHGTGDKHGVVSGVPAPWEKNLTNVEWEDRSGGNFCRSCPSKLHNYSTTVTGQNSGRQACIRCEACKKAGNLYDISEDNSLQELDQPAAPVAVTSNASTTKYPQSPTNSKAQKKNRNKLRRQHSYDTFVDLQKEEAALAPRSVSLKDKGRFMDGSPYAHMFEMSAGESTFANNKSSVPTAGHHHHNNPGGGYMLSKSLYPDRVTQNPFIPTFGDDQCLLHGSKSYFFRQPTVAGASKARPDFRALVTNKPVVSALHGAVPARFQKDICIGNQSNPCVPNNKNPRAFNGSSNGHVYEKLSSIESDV
test: Positive allosteric modulation of recombinant human GluN1/GluN2B receptor stably expressed in HEK293 cells assessed as increase in glycine/L-glutamate-induced channel current at -70 mV holding potential by whole cell patch clamp method
quantity-kind: EC50 (nM)
Unit nM implied. Number only.

Check out these entries, answers already filled in.
C[C@H](CC[C@](C)(O)C(F)(F)F)[C@H]1CC[C@H]2[C@@H]3CC=C4C[C@](C)(O)CC[C@]4(C)[C@H]3CC[C@]12C : 1500
C[C@H](CC[C@@](C)(O)C1CC1)[C@H]1CC[C@H]2[C@@H]3CC=C4C[C@@](C)(O)CC[C@]4(C)[C@H]3CC[C@]12C : 49
CC(C)[C@@](C)(O)CC[C@@H](C)[C@H]1CC[C@H]2[C@@H]3CC=C4C[C@@](C)(O)CC[C@]4(C)[C@H]3CC[C@]12C : 23
CC[C@](C)(O)CC[C@@H](C)[C@H]1CC[C@H]2[C@@H]3CC=C4C[C@@](C)(O)CC[C@]4(C)[C@H]3CC[C@]12C : 100
C[C@H](CC[C@](C)(O)C1CC1)[C@H]1CC[C@H]2[C@@H]3CC=C4C[C@@](C)(O)CC[C@]4(C)[C@H]3CC[C@]12C : 60

Item CC[C@@](C)(O)CC[C@@H](C)[C@H]1CC[C@H]2[C@@H]3CC=C4C[C@@](C)(O)CC[C@]4(C)[C@H]3CC[C@]12C : provide EC50
300

Item COCC[C@@](C)(O)CC[C@@H](C)[C@H]1CC[C@H]2[C@@H]3CC=C4C[C@@](C)(O)CC[C@]4(C)[C@H]3CC[C@]12C : provide EC50
590

Item C[C@H](CC[C@@](C)(O)C(F)(F)F)[C@H]1CC[C@H]2[C@@H]3CC=C4C[C@@](C)(O)CC[C@]4(C)[C@H]3CC[C@]12C : provide EC50
180

Item CC(C)[C@](C)(O)CC[C@@H](C)[C@H]1CC[C@H]2[C@@H]3CC=C4C[C@@](C)(O)CC[C@]4(C)[C@H]3CC[C@]12C : provide EC50
81

Item C[C@H](CC[C@](C)(O)C(F)(F)F)[C@H]1CC[C@H]2[C@@H]3CC=C4C[C@@](C)(O)CC[C@]4(C)[C@H]3CC[C@]12C : provide EC50
79

Reference for the values: ChEMBL document CHEMBL5131569
